Parameter log10(IC50), tested on UniProt O76074, listed per item.
resultType: log10(IC50) (log10 of the value in nM)

{"smilesStructure": "CCCOCCn1c(=O)c(NCCN2CCOCC2)nc2ccc(-c3ccc(=O)[nH]c3)nc21", "log10(IC50)": 2.73}
{"smilesStructure": "CCOCCn1c(=O)c(NCC2CCOCC2)nc2ccc(-c3ccc(F)cc3)nc21", "log10(IC50)": 2.17}
{"smilesStructure": "CCCOCCn1c(=O)c(NCC2CCOCC2)nc2ccc(-c3ccc(F)cc3)nc21", "log10(IC50)": 1.35}
{"smilesStructure": "CCCOCCn1c(=O)c(NCCN2CCOCC2)nc2ccc(-c3ccc(F)cc3)nc21", "log10(IC50)": 1.52}
{"smilesStructure": "CCCOCCn1c(=O)c(NCCN2CCOCC2)nc2ccc(-c3c(C)noc3C)nc21", "log10(IC50)": 1.56}
{"smilesStructure": "COc1ccc(Cn2c(=O)c(NCCN3CCOCC3)nc3ccc(-c4ccc(F)c(F)c4)nc32)cc1", "log10(IC50)": 0.30}
{"smilesStructure": "CC(C)Cn1c(=O)c(NCC2CCOCC2)nc2ccc(-c3ccc(F)cc3)nc21", "log10(IC50)": 2.35}
{"smilesStructure": "O=c1c(NCC2CCOCC2)nc2ccc(-c3ccc(F)cc3)nc2n1Cc1ccccn1", "log10(IC50)": 1.31}
{"smilesStructure": "O=c1c(NCc2cccnc2)nc2ccc(-c3ccc(F)cc3)nc2n1CC1CCCCC1", "log10(IC50)": 1.13}
{"smilesStructure": "COc1ccc(Cn2c(=O)c(NCCN3CCOCC3)nc3ccc(-c4ccc(F)cc4)nc32)cc1", "log10(IC50)": 0.11}
{"smilesStructure": "O=c1c(NCCN2CCOCC2)nc2ccc(-c3ccc(F)cc3)nc2n1CC1CCCCC1", "log10(IC50)": 0.66}
{"smilesStructure": "CCCOCCn1c(=O)c(NCC2CCOCC2)nc2ccc(-c3ccncc3)nc21", "log10(IC50)": 1.53}
{"smilesStructure": "O=c1c(NCC2CCOCC2)nc2ccc(-c3ccncc3)nc2n1CC1CCCCC1", "log10(IC50)": -0.05}
